Ref: ChEMBL document CHEMBL1129092

Known T/C of a selection of compounds
Test system: L1210
testName: Antitumor activity against L1210 in mice, after ip administration at 30 mg/kg for 5 consecutive days, expressed as average % of life time in 6 mice, treated mice/control
Type: functional, Mus musculus
conditionContext: route intraperitoneal

substanceSmiles | comparator | T/C [%]
CO[C@H]1CO[C@@H]([n+]2ccc3c(C)c4[nH]c5ccc(O)cc5c4c(C)c3c2)[C@H](O)[C@H]1O.[Br-] | = | 167
CO[C@@H]1[C@@H](O)[C@@H](O)CO[C@H]1[n+]1ccc2c(C)c3[nH]c4ccc(O)cc4c3c(C)c2c1.[Br-] | = | 123
Cc1c2cc[n+]([C@@H]3OC[C@H](O)[C@H](O)[C@H]3O)cc2c(C)c2c1[nH]c1ccc(O)cc12.[Br-] | > | 960
CO[C@@H]1[C@@H](O)[C@H]([n+]2ccc3c(C)c4[nH]c5ccc(O)cc5c4c(C)c3c2)OC[C@@H]1O.[Br-] | = | 169
